For each entry below, report its pIC50 value.
Target: Suppressor of tumorigenicity 14 protein (Homo sapiens)
Sequence (Q9Y5Y6 whole entry, the tested form may be a part): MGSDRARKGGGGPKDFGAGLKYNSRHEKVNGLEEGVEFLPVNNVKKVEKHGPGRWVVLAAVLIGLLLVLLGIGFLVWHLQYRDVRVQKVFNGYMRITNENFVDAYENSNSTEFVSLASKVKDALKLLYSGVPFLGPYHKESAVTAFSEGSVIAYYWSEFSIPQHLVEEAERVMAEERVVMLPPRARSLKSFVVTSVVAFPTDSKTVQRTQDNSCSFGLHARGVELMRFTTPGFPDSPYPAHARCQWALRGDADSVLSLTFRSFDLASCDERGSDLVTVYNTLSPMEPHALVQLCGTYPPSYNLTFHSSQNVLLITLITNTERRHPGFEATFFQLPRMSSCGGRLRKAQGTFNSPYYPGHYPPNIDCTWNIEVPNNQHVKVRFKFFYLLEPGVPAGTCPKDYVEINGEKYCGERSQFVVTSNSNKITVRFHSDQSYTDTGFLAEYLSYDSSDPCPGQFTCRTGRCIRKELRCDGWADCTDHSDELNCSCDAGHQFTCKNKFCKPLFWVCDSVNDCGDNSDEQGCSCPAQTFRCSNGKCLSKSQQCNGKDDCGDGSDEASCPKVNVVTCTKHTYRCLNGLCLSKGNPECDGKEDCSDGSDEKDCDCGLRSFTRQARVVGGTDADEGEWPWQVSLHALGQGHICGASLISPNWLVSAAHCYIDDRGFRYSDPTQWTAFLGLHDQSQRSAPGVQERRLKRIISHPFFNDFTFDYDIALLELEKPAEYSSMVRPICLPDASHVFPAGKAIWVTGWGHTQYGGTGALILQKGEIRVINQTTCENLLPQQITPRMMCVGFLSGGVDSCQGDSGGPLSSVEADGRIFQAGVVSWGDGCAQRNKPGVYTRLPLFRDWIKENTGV
Test: Inhibition of recombinant human N-terminal Met and 6-His-tagged matriptase (G596 to V855 residues) expressed in Escherichia coli using Boc-QAR-AMC as substrate incubated for 40 mins by FLINT assay
One number for each entry, as −log10 of the molar value.

Previously resolved entries follow.
molecule: N=C(N)c1ccc([C@@H]2Cc3ccc(C(F)(F)F)cc3B(O)O2)cc1OCc1cccnc1
pIC50: 5.70

molecule: Cc1ccc2c(c1)C(Cc1ccc(C(=N)N)c(OCc3cccnc3)c1)OB2O (racemic)
pIC50: 4.60

molecule: Cc1cccc2c1B(O)OC(c1ccc(C(=N)N)c(OCc3cccnc3)c1)C2 (racemic)
pIC50: 5.90

molecule: N=C(N)c1ccc(C2Cc3ccc(C(F)(F)F)cc3B(O)O2)cc1OCc1cccnc1 (racemic)
pIC50: 5.70

molecule: N=C(N)c1ccc(C2Cc3ccccc3B(O)O2)cc1OCc1cccnc1 (racemic)
pIC50: 5.20

molecule: N=C(N)c1ccc(C2Cc3cc(Cl)c(F)cc3B(O)O2)cc1OCc1cccnc1 (racemic)
pIC50: 4.80

molecule: N=C(N)c1ccc(CC2OB(O)c3cc(F)ccc32)cc1OCc1cccnc1 (racemic)
pIC50: 4.20

molecule: N=C(N)c1ccc(C2Cc3ccccc3B(O)O2)cc1OCc1ccccc1Cl (racemic)
pIC50: 5.10

molecule: N=C(N)c1ccc(CC2OB(O)c3ccccc32)cc1OCc1cccnc1 (racemic)
pIC50: 5.10

Read the next record carefully.
Sample N=C(N)c1ccc(CC2OB(O)c3cc(C(F)(F)F)ccc32)cc1OCc1cccnc1 (racemic) — what was its pIC50?
4.50
